# TESTED_TARGET: endogenous phosphorylated LRRK2 (S935) (Homo sapiens)
# Construct: Detection of endogenous phosphorylated LRRK2 (S935) in A549 cells; endogenous in cells
# Sequence (Q5S007 whole entry): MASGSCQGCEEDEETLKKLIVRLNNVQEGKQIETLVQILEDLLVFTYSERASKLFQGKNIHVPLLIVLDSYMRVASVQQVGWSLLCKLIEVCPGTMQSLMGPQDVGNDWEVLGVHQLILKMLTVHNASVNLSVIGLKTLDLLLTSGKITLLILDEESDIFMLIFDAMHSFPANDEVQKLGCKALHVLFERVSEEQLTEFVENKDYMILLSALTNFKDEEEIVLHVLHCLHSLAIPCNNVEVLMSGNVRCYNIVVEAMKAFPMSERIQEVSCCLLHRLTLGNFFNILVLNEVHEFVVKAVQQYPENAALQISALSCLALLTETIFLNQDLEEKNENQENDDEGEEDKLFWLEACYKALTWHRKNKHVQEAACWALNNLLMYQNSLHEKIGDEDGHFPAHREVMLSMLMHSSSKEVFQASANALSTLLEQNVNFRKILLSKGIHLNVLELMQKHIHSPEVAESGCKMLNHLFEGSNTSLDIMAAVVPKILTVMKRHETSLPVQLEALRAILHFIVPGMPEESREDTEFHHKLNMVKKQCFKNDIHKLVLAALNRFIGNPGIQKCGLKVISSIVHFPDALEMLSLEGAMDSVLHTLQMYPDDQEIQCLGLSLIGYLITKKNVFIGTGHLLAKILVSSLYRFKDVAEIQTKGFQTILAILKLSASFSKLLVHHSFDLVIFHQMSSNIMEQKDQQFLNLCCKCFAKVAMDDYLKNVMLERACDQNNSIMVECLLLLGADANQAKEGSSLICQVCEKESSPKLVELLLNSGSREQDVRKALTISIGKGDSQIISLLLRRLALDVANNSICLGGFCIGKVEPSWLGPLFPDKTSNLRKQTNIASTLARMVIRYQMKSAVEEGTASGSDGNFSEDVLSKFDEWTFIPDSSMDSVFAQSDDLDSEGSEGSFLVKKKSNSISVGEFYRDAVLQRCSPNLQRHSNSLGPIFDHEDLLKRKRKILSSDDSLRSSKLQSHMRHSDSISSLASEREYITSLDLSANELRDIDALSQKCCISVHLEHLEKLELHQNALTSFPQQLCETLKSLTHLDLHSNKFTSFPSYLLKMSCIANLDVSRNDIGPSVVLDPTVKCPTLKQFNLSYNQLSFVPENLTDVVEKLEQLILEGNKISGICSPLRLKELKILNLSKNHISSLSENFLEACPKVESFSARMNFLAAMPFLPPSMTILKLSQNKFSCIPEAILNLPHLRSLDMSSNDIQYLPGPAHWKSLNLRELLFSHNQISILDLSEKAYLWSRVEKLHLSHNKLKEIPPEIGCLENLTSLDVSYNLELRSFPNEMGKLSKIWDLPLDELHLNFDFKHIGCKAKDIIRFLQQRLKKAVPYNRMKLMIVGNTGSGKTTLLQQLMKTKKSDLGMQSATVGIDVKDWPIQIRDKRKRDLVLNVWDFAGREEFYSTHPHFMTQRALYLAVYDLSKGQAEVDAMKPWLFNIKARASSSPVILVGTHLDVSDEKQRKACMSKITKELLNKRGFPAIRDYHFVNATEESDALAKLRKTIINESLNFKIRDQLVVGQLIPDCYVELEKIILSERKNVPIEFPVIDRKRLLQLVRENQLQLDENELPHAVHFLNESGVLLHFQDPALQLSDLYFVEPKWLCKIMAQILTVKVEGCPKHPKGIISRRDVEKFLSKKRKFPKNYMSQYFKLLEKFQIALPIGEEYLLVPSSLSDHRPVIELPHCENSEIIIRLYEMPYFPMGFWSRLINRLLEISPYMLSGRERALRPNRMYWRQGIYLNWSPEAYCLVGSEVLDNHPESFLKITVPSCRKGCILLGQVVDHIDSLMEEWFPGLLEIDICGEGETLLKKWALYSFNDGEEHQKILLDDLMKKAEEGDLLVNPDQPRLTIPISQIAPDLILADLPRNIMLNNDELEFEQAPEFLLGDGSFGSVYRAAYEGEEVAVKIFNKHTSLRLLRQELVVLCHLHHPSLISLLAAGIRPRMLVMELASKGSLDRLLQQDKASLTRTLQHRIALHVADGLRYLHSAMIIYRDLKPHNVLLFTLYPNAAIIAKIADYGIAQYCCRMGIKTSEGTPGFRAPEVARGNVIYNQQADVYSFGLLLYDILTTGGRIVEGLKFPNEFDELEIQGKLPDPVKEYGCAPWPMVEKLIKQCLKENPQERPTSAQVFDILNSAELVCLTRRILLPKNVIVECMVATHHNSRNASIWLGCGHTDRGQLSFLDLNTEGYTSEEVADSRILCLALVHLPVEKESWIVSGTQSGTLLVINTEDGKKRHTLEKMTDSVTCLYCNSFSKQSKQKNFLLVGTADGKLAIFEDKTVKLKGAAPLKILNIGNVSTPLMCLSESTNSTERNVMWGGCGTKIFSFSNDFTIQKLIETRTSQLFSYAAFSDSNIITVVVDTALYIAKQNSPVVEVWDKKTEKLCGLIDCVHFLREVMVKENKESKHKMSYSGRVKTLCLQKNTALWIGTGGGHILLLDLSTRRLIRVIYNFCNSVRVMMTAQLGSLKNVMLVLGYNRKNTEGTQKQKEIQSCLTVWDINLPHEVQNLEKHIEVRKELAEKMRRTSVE
# ASSAY_REMARKS: detection of endogenous phosphorylated LRRK2 (S935) in A549 cells (Western blot)
# ASSAY_SETUP: A549 cells, 15 hours, Table 11; read-out: IC50 of inhibitory activity on LRRK2 (S935) activity in A549 cells (column head: Inhibition rate)
pIC50: −log10 of the molar value.
QUANTITY_MEASURED: pIC50

molecule="CN1CCOc2ccc(Nc3ncc(C(F)(F)F)c(Nc4ccccc4)n3)cc2OCC1 [Example 91]" quantity_measured=pIC50 measured_value="> 7.00"
molecule="CN1CCOCCOc2ccc(Nc3ncc(F)c(O[C@H]4CC[C@@](C)(O)CC4)n3)cc2OCC1 [Example 103]" quantity_measured=pIC50 measured_value="> 7.00"
molecule="CN1CCOc2ccc(Nc3ncc(C(F)(F)F)c(O[C@H]4CC[C@@](C)(O)CC4)n3)cc2OCC1 [Example 93]" quantity_measured=pIC50 measured_value="6.30 to 7.00"

----------
# TESTED_TARGET: TYK2 (Homo sapiens, UniProt P29597)
# Sequence (P29597 whole entry): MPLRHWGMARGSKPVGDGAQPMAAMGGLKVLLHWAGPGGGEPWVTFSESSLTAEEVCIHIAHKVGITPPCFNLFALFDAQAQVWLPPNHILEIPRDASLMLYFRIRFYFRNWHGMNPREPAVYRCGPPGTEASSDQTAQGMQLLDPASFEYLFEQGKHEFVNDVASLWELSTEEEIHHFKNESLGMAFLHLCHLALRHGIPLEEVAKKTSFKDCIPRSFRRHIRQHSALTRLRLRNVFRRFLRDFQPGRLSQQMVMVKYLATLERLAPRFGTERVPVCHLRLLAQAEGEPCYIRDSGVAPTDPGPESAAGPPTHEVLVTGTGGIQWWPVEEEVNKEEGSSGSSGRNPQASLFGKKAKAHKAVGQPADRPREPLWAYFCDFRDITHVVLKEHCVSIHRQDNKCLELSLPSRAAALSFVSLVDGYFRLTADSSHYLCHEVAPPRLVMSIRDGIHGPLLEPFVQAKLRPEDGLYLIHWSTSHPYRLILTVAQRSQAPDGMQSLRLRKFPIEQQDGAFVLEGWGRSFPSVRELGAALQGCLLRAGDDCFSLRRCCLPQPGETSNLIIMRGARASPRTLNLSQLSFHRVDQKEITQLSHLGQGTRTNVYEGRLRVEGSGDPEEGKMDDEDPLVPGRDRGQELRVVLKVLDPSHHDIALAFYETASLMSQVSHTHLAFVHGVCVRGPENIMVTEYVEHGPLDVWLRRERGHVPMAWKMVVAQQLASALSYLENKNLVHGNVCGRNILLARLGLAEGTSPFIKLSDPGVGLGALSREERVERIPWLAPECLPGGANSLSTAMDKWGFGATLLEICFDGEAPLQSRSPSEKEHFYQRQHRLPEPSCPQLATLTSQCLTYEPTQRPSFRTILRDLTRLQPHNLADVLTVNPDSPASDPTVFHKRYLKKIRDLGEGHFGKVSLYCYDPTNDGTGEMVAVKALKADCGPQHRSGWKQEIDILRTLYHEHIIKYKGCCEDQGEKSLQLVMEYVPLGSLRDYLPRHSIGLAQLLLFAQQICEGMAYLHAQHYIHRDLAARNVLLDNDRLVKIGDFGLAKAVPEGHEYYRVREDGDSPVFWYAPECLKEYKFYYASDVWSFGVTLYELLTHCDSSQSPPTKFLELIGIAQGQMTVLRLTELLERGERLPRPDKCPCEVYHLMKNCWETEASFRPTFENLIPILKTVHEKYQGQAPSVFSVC
# ASSAY_REMARKS: experiment of inhibiting kinase activity, TYK2
# Assay type: biochemical
# ASSAY_SETUP: at 10 nM; read-out: inhibition rate TYK2
QUANTITY_MEASURED: inhibition at 0.01 µM

molecule=CN1CCOCCOc2cc(Nc3ncc(F)c(-c4ccc(C(=O)NCC#N)cc4)n3)ccc2OCC1 quantity_measured="inhibition at 0.01 µM" measured_value="40 to 79%"
molecule=CN1CCOc2ccc(Nc3ncc(F)c(-c4ccc(C(=O)NCC#N)cc4)n3)cc2OCC1 quantity_measured="inhibition at 0.01 µM" measured_value="25 to 39%"
molecule="CN1CCOCCOc2ccc(Nc3ncc(F)c(-c4cnn(C(CC#N)C5CCCC5)c4)n3)cc2OCC1 (stereo not drawn)" quantity_measured="inhibition at 0.01 µM" measured_value="> 80%"
molecule=CC(C)S(=O)(=O)c1ccccc1Nc1nc(Nc2ccc3c(c2)OCCOCCN(S(C)(=O)=O)CCO3)nc2[nH]ccc12 quantity_measured="inhibition at 0.01 µM" measured_value="25 to 39%"
molecule="CN1CCOCCOc2cc(Nc3nc(-c4cnn(C(CC#N)C5CCCC5)c4)c4cc[nH]c4n3)ccc2OCC1 (stereo not drawn)" quantity_measured="inhibition at 0.01 µM" measured_value="> 80%"
molecule=CN1CCOCCOc2cc(Nc3nc(-c4cnn([C@H](CC#N)C5CCCC5)c4)c4cc[nH]c4n3)ccc2OCC1 quantity_measured="inhibition at 0.01 µM" measured_value="> 80%"
molecule=CN1CCOc2ccc(Nc3nc(N4C[C@H]5CC[C@@H](C4)N5C(=O)C4CC4)c4cc[nH]c4n3)cc2OCC1 quantity_measured="inhibition at 0.01 µM" measured_value="> 80%"
molecule=CCS(=O)(=O)N1CC(CC#N)(n2cc(-c3nc(Nc4ccc5c(c4)OCCN(C)CCOCCO5)nc4[nH]ncc34)cn2)C1 quantity_measured="inhibition at 0.01 µM" measured_value="25 to 39%"
molecule=CN1CCOCCOc2cc(Nc3nc(Nc4ccccc4P(C)(C)=O)c4cc[nH]c4n3)ccc2OCC1 quantity_measured="inhibition at 0.01 µM" measured_value="25 to 39%"
molecule=CN1CCOc2ccc(Nc3nc(Nc4ccccc4P(C)(C)=O)c4cc[nH]c4n3)cc2OCC1 quantity_measured="inhibition at 0.01 µM" measured_value="40 to 79%"
molecule=CCS(=O)(=O)N1CC(CC#N)(n2cc(-c3nc(Nc4ccc5c(c4)OCCN(C)CCOCCO5)nc4[nH]ccc34)cn2)C1 quantity_measured="inhibition at 0.01 µM" measured_value="> 80%"
molecule="CN1CCOc2ccc(Nc3nc(-c4cnn(C(CC#N)C5CCCC5)c4)c4cc[nH]c4n3)cc2OCC1 (stereo not drawn)" quantity_measured="inhibition at 0.01 µM" measured_value="40 to 79%"
molecule=CC(C)S(=O)(=O)c1ccccc1Nc1nc(Nc2ccc3c(c2)OCCOCCN(C)CCO3)nc2[nH]ncc12 quantity_measured="inhibition at 0.01 µM" measured_value="25 to 39%"
molecule=CN1CCOCCOc2cc(Nc3nc(-c4cnn([C@@H](CC#N)C5CCCC5)c4)c4cc[nH]c4n3)ccc2OCC1 quantity_measured="inhibition at 0.01 µM" measured_value="> 80%"
molecule=CC(C)S(=O)(=O)c1ccccc1Nc1nc(Nc2ccc3c(c2)OCCN(C)CCO3)ncc1C(F)(F)F quantity_measured="inhibition at 0.01 µM" measured_value="40 to 79%"

----------
# TESTED_TARGET: TYK2 (Homo sapiens)
# ASSAY_REMARKS: experiment of inhibiting kinase activity, TYK2
# Format: biochemical
# ASSAY_SETUP: at 100 nM; read-out: inhibition rate TYK2
# Protocol: The inhibition rates of tested compounds on JAK1, JAK2, JAK3, TYK2, CDK7, CDK9, EGFR (T790M) and LRRK2 kinases were measured. The test concentrations of the compounds were 10 nM and 100 nM, and the detection was performed by replicate wells. Alternatively, compounds were 3-fold serial diluted from 10 µM for 10 concentrations in replicate wells.
QUANTITY_MEASURED: inhibition at 0.1 µM

compound=CC(C)S(=O)(=O)c1ccccc1Nc1nc(Nc2ccc3c(c2)OCCOCCN(C)CCO3)nc2[nH]ccc12 tested_target="TYK2 (Homo sapiens)" measured_value="> 80%"
compound=CC(C)S(=O)(=O)c1ccccc1Nc1nc(Nc2ccc3c(c2)OCCOCCNCCO3)nc2[nH]ccc12 tested_target="TYK2 (Homo sapiens)" measured_value="40 to 79%"
compound=CN1CCOc2ccc(Nc3nc(-c4ccc(C(=O)NCC#N)cc4)c4cn[nH]c4n3)cc2OCC1 tested_target="TYK2 (Homo sapiens)" measured_value="40 to 79%"
compound="CN1CCOc2ccc(Nc3nc(-c4cnn(C(CC#N)C5CCCC5)c4)c4cc[nH]c4n3)cc2OCC1 (stereo not shown)" tested_target="TYK2 (Homo sapiens)" measured_value="> 80%"

----------
# TESTED_TARGET: CDK9 (Homo sapiens)
# Sequence (P50750 whole entry): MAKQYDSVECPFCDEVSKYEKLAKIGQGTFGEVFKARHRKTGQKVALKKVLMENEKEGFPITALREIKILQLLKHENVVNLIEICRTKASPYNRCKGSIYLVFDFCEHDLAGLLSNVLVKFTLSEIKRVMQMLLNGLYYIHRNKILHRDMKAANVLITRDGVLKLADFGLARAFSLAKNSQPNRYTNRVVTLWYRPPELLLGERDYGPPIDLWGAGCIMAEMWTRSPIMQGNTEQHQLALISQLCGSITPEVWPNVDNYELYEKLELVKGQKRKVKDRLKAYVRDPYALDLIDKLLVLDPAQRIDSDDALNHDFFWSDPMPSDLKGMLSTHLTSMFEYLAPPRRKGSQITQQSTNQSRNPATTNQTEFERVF
# Sequence (O60563 whole entry partner): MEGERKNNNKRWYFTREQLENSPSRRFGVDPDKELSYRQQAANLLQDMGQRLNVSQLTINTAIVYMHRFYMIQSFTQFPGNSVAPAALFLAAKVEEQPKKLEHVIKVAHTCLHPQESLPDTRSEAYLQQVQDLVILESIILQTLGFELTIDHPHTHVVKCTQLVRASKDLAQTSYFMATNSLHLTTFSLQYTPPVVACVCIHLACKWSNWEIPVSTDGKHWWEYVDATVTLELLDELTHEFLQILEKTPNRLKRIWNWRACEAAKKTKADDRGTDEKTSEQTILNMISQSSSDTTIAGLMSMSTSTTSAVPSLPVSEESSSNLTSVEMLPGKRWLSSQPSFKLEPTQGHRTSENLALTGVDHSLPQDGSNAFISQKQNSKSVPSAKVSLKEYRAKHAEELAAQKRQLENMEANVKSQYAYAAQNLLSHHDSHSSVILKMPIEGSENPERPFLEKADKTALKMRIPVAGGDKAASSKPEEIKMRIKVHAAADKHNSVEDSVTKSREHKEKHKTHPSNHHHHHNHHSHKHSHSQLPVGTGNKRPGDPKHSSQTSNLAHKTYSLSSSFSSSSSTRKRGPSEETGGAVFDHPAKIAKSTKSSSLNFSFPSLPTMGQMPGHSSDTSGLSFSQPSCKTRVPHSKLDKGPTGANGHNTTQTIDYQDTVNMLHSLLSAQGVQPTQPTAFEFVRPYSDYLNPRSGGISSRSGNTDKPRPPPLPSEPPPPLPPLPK
# ASSAY_REMARKS: experiment of inhibiting kinase activity (Caliper mobility shift assay), CDK9
# Assay type: biochemical
# ASSAY_SETUP: at 100 nM; read-out: inhibition rate CDK9
QUANTITY_MEASURED: inhibition at 0.1 µM

compound="CC(C)S(=O)(=O)c1ccccc1Nc1nc(Nc2ccc3c(c2)OCCOCCN(C)CCO3)nc2[nH]ccc12 [Example 10]" tested_target="CDK9 (Homo sapiens)" measured_value="40 to 79%"
compound="CN1CCOc2ccc(Nc3nc(NCCP(C)(C)=O)c4cc[nH]c4n3)cc2OCC1 [Example 85]" tested_target="CDK9 (Homo sapiens)" measured_value="> 80%"
compound="CN1CCOCCOc2ccc(Nc3ncc(F)c(-c4ccc(C(=O)NCC#N)cc4)n3)cc2OCC1 [Example 44]" tested_target="CDK9 (Homo sapiens)" measured_value="> 80%"
compound="CC(C)S(=O)(=O)c1ccccc1Nc1nc(Nc2ccc3c(c2)OCCOCCN(C)CCO3)nc2[nH]cnc12 [Example 60]" tested_target="CDK9 (Homo sapiens)" measured_value="40 to 79%"

----------
# TESTED_TARGET: JAK1 (Homo sapiens, UniProt P23458)
# ASSAY_REMARKS: experiment of inhibiting kinase activity (Caliper mobility shift assay), JAK1
# Assay type: biochemical
# ASSAY_SETUP: at 100 nM; read-out: inhibition rate JAK1
QUANTITY_MEASURED: inhibition at 0.1 µM

molecule=CN1CCOCCOc2cc(Nc3ncc(F)c(Nc4ccc5[nH]ccc5c4)n3)ccc2OCC1 quantity_measured="inhibition at 0.1 µM" measured_value="25 to 39%"
molecule=CN1CCOc2ccc(Nc3ncc(F)c(-c4ccc(C(=O)NCC#N)cc4)n3)cc2OCC1 quantity_measured="inhibition at 0.1 µM" measured_value="40 to 79%"
molecule=CC(C)S(=O)(=O)c1ccccc1Nc1nc(Nc2ccc3c(c2)OCCOCCN(C)CCO3)nc2[nH]ccc12 quantity_measured="inhibition at 0.1 µM" measured_value="25 to 39%"
molecule=CN1CCOc2ccc(Nc3nc(-c4ccc(C(=O)NCC#N)cc4)c4cn[nH]c4n3)cc2OCC1 quantity_measured="inhibition at 0.1 µM" measured_value="40 to 79%"
molecule=CN1CCOCCOc2cc(Nc3ncc(F)c(Nc4cccc(S(=O)(=O)NC(C)(C)C)c4)n3)ccc2OCC1 quantity_measured="inhibition at 0.1 µM" measured_value="25 to 39%"
molecule=CC(C)S(=O)(=O)c1ccccc1Nc1nc(Nc2ccc3c(c2)OCCN(C)CCO3)nc2[nH]ccc12 quantity_measured="inhibition at 0.1 µM" measured_value="40 to 79%"
molecule="CN1CCOc2ccc(Nc3nc(-c4cnn(C(CC#N)C5CCCC5)c4)c4cc[nH]c4n3)cc2OCC1 (centres unmarked)" quantity_measured="inhibition at 0.1 µM" measured_value="> 80%"
molecule=CN1CCOc2ccc(Nc3nc(-c4ccc(C(=O)NCC#N)cc4)c4cc[nH]c4n3)cc2OCC1 quantity_measured="inhibition at 0.1 µM" measured_value="> 80%"
